Data origin: patent US11739074B2

target: KRAS G12C (Homo sapiens, UniProt P01116+P62937, G12C); experiment: Ras-Raf disruption/FRET/MOA assay, KRAS G12C; type: biochemical; conditions: disruption of BRAF RBD binding, with Cyclophilin A; read-out: KRAS G12C FRET IC50
Sequence (P01116 1-169 isoform P01116-2 G12C limits assumed): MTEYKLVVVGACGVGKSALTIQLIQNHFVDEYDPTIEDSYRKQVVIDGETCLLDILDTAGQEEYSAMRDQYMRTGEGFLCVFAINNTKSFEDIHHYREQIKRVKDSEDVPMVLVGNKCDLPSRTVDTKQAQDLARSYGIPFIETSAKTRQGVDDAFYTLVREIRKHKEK
Sequence (P62937 whole entry): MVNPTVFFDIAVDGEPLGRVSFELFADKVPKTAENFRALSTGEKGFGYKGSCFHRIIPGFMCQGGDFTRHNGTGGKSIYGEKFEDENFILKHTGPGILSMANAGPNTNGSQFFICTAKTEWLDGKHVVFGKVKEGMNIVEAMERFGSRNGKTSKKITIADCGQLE
Below, each entry is listed with its recorded IC50.
observation.type: IC50

>>> reading("CCn1c(-c2cccnc2[C@H](C)OC)c2c3cc(ccc31)-c1cc(O)cc(c1)C[C@H](NC(=O)[C@H](C(C)C)N1CC[C@]3(CCN(C[C@@H]4CN4)C3)C1=O)C(=O)N1CCC[C@H](N1)C(=O)OCC(C)(C)C2")
"10 to 100 nM"
>>> reading("CCn1c(-c2cccnc2[C@H](C)OC)c2c3cc(ccc31)-c1cc(O)cc(c1)C[C@H](NC(=O)[C@H](C(C)C)N1CC[C@@]3(CCCN(C(=O)[C@H]4CN4)C3)C1=O)C(=O)N1CCC[C@H](N1)C(=O)OCC(C)(C)C2")
"100 to 1000 nM"
>>> reading("CCn1c(-c2cccnc2[C@H](C)OC)c2c3cc(ccc31)-c1csc(n1)C[C@H](NC(=O)[C@H](C(C)C)N(C)C(=O)N1C3CCC1CN(C(=O)[C@@H]1CN1)C3)C(=O)N1CCC[C@H](N1)C(=O)OCC(C)(C)C2")
"100 to 1000 nM"
>>> reading("CCn1c(-c2cnccc2COC)c2c3cc(ccc31)-c1cc(O)cc(c1)C[C@H](NC(=O)[C@H](C(C)C)N(C)C(=O)CN1C(=O)[C@@H]3[C@H](C1=O)N3Cc1ccccc1)C(=O)N1CCC[C@H](N1)C(=O)OCC(C)(C)C2 (some centres unmarked)")
"100 to 1000 nM"
>>> reading("CCn1c(-c2cccnc2[C@H](C)OC)c2c3cc(ccc31)-c1csc(n1)C[C@H](NC(=O)[C@H](C(C)C)N(C)C(=O)N1CCC[C@@H](N(C)C(=O)[C@H]3CN3)C1)C(=O)N1CCC[C@H](N1)C(=O)OCC(C)(C)C2 (atropisomer, axis not shown)")
"10 to 100 nM"
>>> reading("CCn1c(-c2cccnc2[C@H](C)OC)c2c3cc(ccc31)-c1csc(n1)C[C@H](NC(=O)[C@H](C(C)C)N(C)C(=O)N1CCC[C@@H](N(C)C(=O)[C@@H]3CN3)C1)C(=O)N1CCC[C@H](N1)C(=O)OCC(C)(C)C2 (atropisomer, axis not shown)")
"10 to 100 nM"
>>> reading("CCn1c(-c2cnccc2COC)c2c3cc(ccc31)-c1cc(O)cc(c1)C[C@H](NC(=O)[C@H](C(C)C)N(C)C(=O)CN(C)C(=O)[C@@H]1CN1C(=O)OC)C(=O)N1CCC[C@H](N1)C(=O)OCC(C)(C)C2")
"10 to 100 nM"
>>> reading("CCn1c(-c2cccnc2[C@H](C)OC)c2c3cc(ccc31)-c1cc(O)cc(c1)C[C@H](NC(=O)[C@H](C(C)C)N(C)C(=O)N1CCN(C(=O)[C@@H]3CN3)CC1)C(=O)N1CCC[C@H](N1)C(=O)OCC(C)(C)C2 (atropisomer, axis not shown)")
"10 to 100 nM"
